target: Recombinant human cathepsin A (Homo sapiens, UniProt P10619); construct: Recombinant human cathepsin A (residues 29-480, with a C-terminal 10-His tag); 10-His (C); assay: Cathepsin A inhibitory activity; conditions: Bodipy FL-labeled bradykinin substrate 2 μM, pH 5.5, microfluidic capillary electrophoresis
Sequence (P10619 29-326 limits assumed): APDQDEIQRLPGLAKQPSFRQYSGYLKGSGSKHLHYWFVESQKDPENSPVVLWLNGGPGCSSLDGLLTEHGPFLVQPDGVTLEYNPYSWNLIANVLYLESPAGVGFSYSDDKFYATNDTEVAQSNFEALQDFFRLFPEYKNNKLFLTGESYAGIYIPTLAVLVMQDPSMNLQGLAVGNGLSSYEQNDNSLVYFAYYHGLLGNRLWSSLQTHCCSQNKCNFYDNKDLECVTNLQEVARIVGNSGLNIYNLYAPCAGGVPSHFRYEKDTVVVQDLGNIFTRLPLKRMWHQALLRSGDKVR
Sequence (P10619 327-480 limits assumed): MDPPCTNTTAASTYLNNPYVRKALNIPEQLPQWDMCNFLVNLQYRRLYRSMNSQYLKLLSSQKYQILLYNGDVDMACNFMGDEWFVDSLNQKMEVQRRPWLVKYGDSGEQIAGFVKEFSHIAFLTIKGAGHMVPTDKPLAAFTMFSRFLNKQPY
property: IC50 (nM)
// units = nM; emit number, no label

Give Recombinant human cathepsin A (Homo sapiens, UniProt P10619) IC50 for CC(C)(C)NC(=O)N[C@H](C(=O)N1C[C@H]2[C@@H]([C@H]1C(=O)NC(CC1CCC1)C(=O)C(N)=O)C2(C)C)C(C)(C)C (stereo partly shown) [Boceprevir]
1000
